# tested system: Isocitrate dehydrogenase [NADP] cytoplasmic (Homo sapiens, UniProt O75874, R132H)
# Sequence (O75874 2-414 R132H limits assumed): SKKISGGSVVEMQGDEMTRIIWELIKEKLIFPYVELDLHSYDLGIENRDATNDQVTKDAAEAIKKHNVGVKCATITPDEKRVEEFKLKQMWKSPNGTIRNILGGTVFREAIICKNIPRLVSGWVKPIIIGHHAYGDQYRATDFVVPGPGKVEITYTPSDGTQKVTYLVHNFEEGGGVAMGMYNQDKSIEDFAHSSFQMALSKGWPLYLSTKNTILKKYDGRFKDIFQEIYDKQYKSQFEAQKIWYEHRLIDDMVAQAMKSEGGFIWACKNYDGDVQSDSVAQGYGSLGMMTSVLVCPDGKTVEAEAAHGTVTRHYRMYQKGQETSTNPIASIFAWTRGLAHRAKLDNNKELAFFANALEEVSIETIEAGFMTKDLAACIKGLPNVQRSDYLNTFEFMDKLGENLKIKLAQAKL
# test summary: Inhibition of IDH1 R132H mutant (unknown origin) expressed in HEK293T cells assessed as inhibition of 2-HG generation measured after 48 hrs by LC-MS/MS analysis
# Type: cell-based
pIC50: −log10 of the molar value.
measured property: pIC50

Below, 3 molecules whose answers are already recorded.
molecule=C=CS(=O)(=O)N1CCC(Nc2ccc([C@H](C)Nc3nccc(N4C(=O)OC[C@@H]4C(C)C)n3)cc2)CC1 value_observed=6.77
molecule=CC(C)[C@H]1COC(=O)N1c1nc(N[C@@H](C)c2ccc(Nc3ccc(NC(=O)CCl)c(N4CCOCC4)c3)cc2)ncc1F value_observed=5.00
molecule=C=CS(=O)(=O)N1CCC(Nc2ccc([C@H](C)Nc3ncc(F)c(N4C(=O)OC[C@@H]4C(C)C)n3)cc2)CC1 value_observed=6.89

1 = C=CC(=O)Nc1cc(Nc2ccc([C@H](C)Nc3ncc(F)c(N4C(=O)OC[C@@H]4C(C)C)n3)cc2)ccc1N1CCOCC1
2 = C=CS(=O)(=O)NC1CCN(c2ccc([C@H](C)Nc3ncc(F)c(N4C(=O)OC[C@@H]4C(C)C)n3)cc2)CC1
Of the two listed items, 1 and 2 , which carries the larger pIC50 figure? Write down the label of the entry you select. 2

I = C=CS(=O)(=O)NC1CCCN(c2ccc([C@H](C)Nc3ncc(F)c(N4C(=O)OC[C@@H]4C(C)C)n3)cc2)C1 (some centres not stated)
II = C=CS(=O)(=O)Nc1cc(Nc2ccc([C@H](C)Nc3ncc(F)c(N4C(=O)OC[C@@H]4C(C)C)n3)cc2)ccc1N(C)C
Of the two listed items, I and II , which carries the larger pIC50 figure? Write down the label of the entry you select. I

----------
# tested system: Isocitrate dehydrogenase [NADP], mitochondrial (Homo sapiens, UniProt P48735)
# Sequence (P48735 whole entry): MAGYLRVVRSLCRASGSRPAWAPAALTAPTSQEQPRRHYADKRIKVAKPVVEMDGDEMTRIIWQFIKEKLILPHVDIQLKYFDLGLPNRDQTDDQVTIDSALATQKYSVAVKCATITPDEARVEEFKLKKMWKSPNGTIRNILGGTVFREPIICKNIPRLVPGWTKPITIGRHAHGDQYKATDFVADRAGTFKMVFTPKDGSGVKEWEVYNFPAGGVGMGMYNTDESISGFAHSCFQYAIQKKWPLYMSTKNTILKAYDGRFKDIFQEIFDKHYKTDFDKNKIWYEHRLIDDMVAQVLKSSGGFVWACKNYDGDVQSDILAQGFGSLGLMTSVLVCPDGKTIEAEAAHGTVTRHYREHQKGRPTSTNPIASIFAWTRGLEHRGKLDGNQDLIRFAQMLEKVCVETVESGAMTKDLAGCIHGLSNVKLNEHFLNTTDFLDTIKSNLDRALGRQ
measured property: IC50

Name the recorded IC50 of the item "C=CS(=O)(=O)NC1CCN(c2ccc([C@H](C)Nc3ncc(F)c(N4C(=O)OC[C@@H]4C(C)C)n3)cc2)CC1" in your answer. > 10 µM

----------
# test summary: Clearance in Sprague-Dawley rat at 10 mg/kg, po measured upto 24 hrs by LC-MS/MS analysis
# Assay type: ADME, organism-based
# recorded conditions: in vivo
measured property: CL/F (L/h/kg)
Give a bare numeral; the unit L/h/kg is implied.

Name the recorded CL/F of the item "C=CS(=O)(=O)NC1CCN(c2ccc([C@H](C)Nc3ncc(F)c(N4C(=O)OC[C@@H]4C(C)C)n3)cc2)CC1" in your answer. 260

----------
# tested system: Isocitrate dehydrogenase [NADP] cytoplasmic (Homo sapiens)
pIC50: −log10 of the molar value.
measured property: pIC50

Name the recorded pIC50 of the item "C=CS(=O)(=O)NC1CCN(c2ccc([C@H](C)Nc3ncc(F)c(N4C(=O)OC[C@@H]4C(C)C)n3)cc2)CC1" in your answer. < 5.00

----------
# tested system: Isocitrate dehydrogenase [NADP] cytoplasmic (Homo sapiens, UniProt O75874, R132H)
# test summary: Inhibition of IDH1 R132H mutant (unknown origin) expressed in Escherichia coli BL21 (DE3) assessed as NADPH consumption using alpha-KG as substrate measured after 60 mins
measured property: IC50 (nM)

Below, 5 compounds whose answers are already recorded.
compound=CCC(=O)NC1CCN(c2ccc([C@H](C)Nc3ncc(F)c(N4C(=O)OC[C@@H]4C(C)C)n3)cc2)CC1 value_observed=198
compound=C=CS(=O)(=O)Nc1ccc(Nc2ccc([C@H](C)Nc3nccc(N4C(=O)OC[C@@H]4C(C)C)n3)cc2)cc1N1CCN(CC)CC1 value_observed=547
compound="C=CS(=O)(=O)NC1CCCN(c2ccc([C@H](C)Nc3ncc(F)c(N4C(=O)OC[C@@H]4C(C)C)n3)cc2)C1 (some centres undefined)" value_observed=119
compound=CCC(=O)Nc1cc(-c2ccc([C@H](C)Nc3ncc(F)c(N4C(=O)OC[C@@H]4C(C)C)n3)cc2)ccc1N(C)C value_observed=741
compound=CCC(=O)Nc1cc(Nc2ccc([C@H](C)Nc3ncc(F)c(N4C(=O)OC[C@@H]4C(C)C)n3)cc2)ccc1N(C)C value_observed=932

P = C=CS(=O)(=O)Nc1ccc(Nc2ccc([C@H](C)Nc3ncc(F)c(N4C(=O)OC[C@@H]4C(C)C)n3)cc2)cc1N1CCN(CC)CC1
Q = CCS(=O)(=O)NC1CCN(c2ccc([C@H](C)Nc3ncc(F)c(N4C(=O)OC[C@@H]4C(C)C)n3)cc2)CC1
R = C=CC(=O)Nc1ccc(Nc2ccc([C@H](C)Nc3nccc(N4C(=O)OC[C@@H]4C(C)C)n3)cc2)cc1N1CCN(CC)CC1
S = C=CS(=O)(=O)NC1CCN(c2ccc([C@H](C)Nc3ncc(F)c(N4C(=O)OC[C@@H]4C(C)C)n3)cc2)CC1
T = C=CS(=O)(=O)Nc1ccc(Nc2ccc([C@H](C)Nc3ccc(C#N)cn3)cc2)cc1N(C)C
Ascending by IC50, please: list the compounds accordingly. The reply should contain the labels ordered as requested. S, Q, P, R, T
(S: 4.7 nM, Q: 143 nM, P: 245 nM, R: 898 nM, T: 6320 nM)

A = C=CC(=O)NC1CCN(c2ccc([C@H](C)Nc3nccc(N4C(=O)OC[C@@H]4C(C)C)n3)cc2)CC1
B = C=CC(=O)Nc1ccc(Nc2ccc([C@H](C)Nc3ncc(F)c(N4C(=O)OC[C@@H]4C(C)C)n3)cc2)cc1N1CCOCC1
C = CCS(=O)(=O)Nc1ccc(Nc2ccc([C@H](C)Nc3ccc(C#N)cn3)cc2)cc1N(C)C
D = C=CC(=O)Nc1cc(-c2ccc([C@H](C)Nc3ncc(F)c(N4C(=O)OC[C@@H]4C(C)C)n3)cc2)ccc1N(C)C
E = C=CS(=O)(=O)Nc1cc(Nc2ccc([C@H](C)Nc3ncc(F)c(N4C(=O)OC[C@@H]4C(C)C)n3)cc2)ccc1N(C)C
Arrange the 5 compounds from largest to smallest IC50. The reply should contain the labels ordered as requested. A, C, B, D, E
(A: 6510 nM, C: 2770 nM, B: 976 nM, D: 630 nM, E: 151 nM)

a = C=CC(=O)Nc1cc(Nc2ccc([C@H](C)Nc3ncc(F)c(N4C(=O)OC[C@@H]4C(C)C)n3)cc2)ccc1N1CCOCC1
b = CC(C)[C@H]1COC(=O)N1c1nc(N[C@@H](C)c2ccc(N3CCC(NC(=O)CCl)CC3)cc2)ncc1F
Form: Entry with minimum IC50 (choose one): a / b Write down the label of the entry you select. b
(b: 87 nM, a: 205 nM)
